experiment: Human HepG2 cell viability assay in 384 well format; assay type: toxicity, cell-based; set-up: dose 125 nL, time 70.5 hour; concentration not given beside the values; details: HepG2 cells, read-out: Inhibition
Value kind: cytotoxicity at 70.5 h (%)
Value expressed in %; do not type the unit.

Compound: COCC(=O)N(C)Cc1nc(N2CCCC2)ncc1-c1ccncc1
Value kind: cytotoxicity at 70.5 h
Unit symbol: %
Reading: 13.6
//
Compound: CCN(Cc1ccc2c(c1)OCCO2)C(=O)NC(C)Cn1ccnc1 (configuration not stated)
Value kind: cytotoxicity at 70.5 h
Unit symbol: %
Reading: -12.9
//
Compound: Cc1ccnn1CCN1CCCC2(CCC(=O)N(C3CCCC3)C2)C1 (configuration not stated)
Value kind: cytotoxicity at 70.5 h
Unit symbol: %
Reading: -21
//
Compound: COc1ccc(C(C)NCCc2ccc(NC(C)=O)cc2)cc1F (configuration not stated)
Value kind: cytotoxicity at 70.5 h
Unit symbol: %
Reading: -4.18
//
Compound: CC1=NN(c2ccc(C(=O)OCCNC(=O)c3ccncc3)cc2)CC1
Value kind: cytotoxicity at 70.5 h
Unit symbol: %
Reading: -2.48
//
Compound: CCc1nc(COc2ccc(OCc3cnn(C)c3)cc2)no1
Value kind: cytotoxicity at 70.5 h
Unit symbol: %
Reading: -2.52

Attention now shifts to the item below.
Task item: If you can, please state the reported cytotoxicity at 70.5 h value of O=C(NC1CCc2[nH]c(=O)ccc2C1)C1CCOCC1 (configuration not stated) .
Reply: 13.7

* * *

test: Human HepG2 cell viability assay in 384 well format; format: toxicity, cell-based; design: dose 125 nL, time 70.5 hour; concentration not given beside the values; conditions: HepG2 cells, read-out: Inhibition
Value kind: cytotoxicity at 70.5 h
Field: value (include unit after the number)

Worked cases, answers included:
Compound: Cc1nn(C)c2nc(N(C)CC3CCN(CC(C)C)C3)sc12 (centres undefined)
cytotoxicity at 70.5 h: 1.29%
//
Compound: OC1CCN(Cc2ccnc(-c3cccnc3)n2)CC1
cytotoxicity at 70.5 h: -7.13%
//
Compound: Nc1cc(-c2cc(C(=O)O)ccc2Cl)c2cc[nH]c2n1
cytotoxicity at 70.5 h: -8.39%

Task item: If you can, please state the reported cytotoxicity at 70.5 h value of `CN1CCN(c2ccc(NCc3ccsc3)cn2)CC1` .
Reply: -8.79%

* * *

experiment: Human HepG2 cell viability assay in 384 well format; type: toxicity, cell-based; set-up: dose 125 nL, time 70.5 hour; concentration not given beside the values; conditions: HepG2 cells, read-out: Inhibition
Value kind: cytotoxicity at 70.5 h (%)
Value expressed in %; do not type the unit.

Worked cases, answers included:
Molecule: Cc1nn(C2CCS(=O)(=O)C2)c(O)c1Cc1ccccc1 (centres undefined)
Reading: -16.5
//
Molecule: CN1CCC(NC(=O)c2cc(Cl)cc(Br)c2O)C1=O (centres undefined)
Reading: -5.52
//
Molecule: Cc1noc(C)c1NC(=O)NC1CCN(C(=O)OC(C)(C)C)CC1
Reading: -9.26
//
Molecule: Cc1cc(S(=O)(=O)N2CCCc3cc(F)cc(F)c32)sc1C(=O)O
Reading: 11.1

Task item: If you can, please state the reported cytotoxicity at 70.5 h value of `Cc1cccc2c1nc1n2[C@@H](CNC(=O)c2ccncc2)COC1` .
Reply: -3.38

Task item: If you can, please state the reported cytotoxicity at 70.5 h value of `c1ccc(-c2noc3c2CN(CC2CC2)CC3)cc1` .
Reply: -3.25

Task item: If you can, please state the reported cytotoxicity at 70.5 h value of `N#Cc1ccc(N2CCC(OCCc3ccccc3)CC2)nc1` .
Reply: -13.8

Task item: If you can, please state the reported cytotoxicity at 70.5 h value of `Cc1nccn1CC(=O)N1CC(Cc2nccc3ccn(C)c23)C1` .
Reply: -9.67

Task item: If you can, please state the reported cytotoxicity at 70.5 h value of `COCC1CCN(CCCc2cn[nH]c2)CC1` .
Reply: 19.8

Numbers sourced from ChEMBL document CHEMBL3507680.
